molecular target: Bifunctional dihydrofolate reductase-thymidylate synthase (Plasmodium falciparum K1); assay: Inhibition of Plasmodium falciparum DHFR using DHF as substrate preincubated for 15 mins followed DHF addition measured after 15 mins by spectrophotometric method
Sequence (P13922 whole entry): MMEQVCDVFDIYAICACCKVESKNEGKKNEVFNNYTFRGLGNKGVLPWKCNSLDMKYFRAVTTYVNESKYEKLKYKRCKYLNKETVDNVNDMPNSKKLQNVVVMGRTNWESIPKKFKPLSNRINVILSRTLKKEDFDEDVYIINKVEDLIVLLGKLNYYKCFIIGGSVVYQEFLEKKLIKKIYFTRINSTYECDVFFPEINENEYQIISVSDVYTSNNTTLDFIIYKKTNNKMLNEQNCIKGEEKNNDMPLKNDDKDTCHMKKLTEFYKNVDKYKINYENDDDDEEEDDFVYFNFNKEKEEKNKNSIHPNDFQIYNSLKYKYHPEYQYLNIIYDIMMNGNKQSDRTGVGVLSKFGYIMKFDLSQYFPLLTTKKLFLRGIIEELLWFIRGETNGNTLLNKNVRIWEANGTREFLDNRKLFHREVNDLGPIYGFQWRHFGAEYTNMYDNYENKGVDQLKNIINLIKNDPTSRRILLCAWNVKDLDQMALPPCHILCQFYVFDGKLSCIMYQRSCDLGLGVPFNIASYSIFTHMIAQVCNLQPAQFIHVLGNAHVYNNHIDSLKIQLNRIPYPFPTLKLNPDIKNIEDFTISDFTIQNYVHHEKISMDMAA

given-smiles: Nc1nc(N)c2cc(NCc3ccc(CCNC(=O)c4ccc5ccccc5c4)cc3)ccc2n1
reading-unit: nM
IC50: 67.9
--
given-smiles: Nc1nc(N)c2cc(NCc3ccc(CCNC(=O)c4ccc5c(c4)OCCO5)cc3)ccc2n1
reading-unit: nM
IC50: 80.9
--
given-smiles: Nc1nc(N)c2cc(NCc3ccc(CCNC(=O)CCc4ccccc4)cc3)ccc2n1
reading-unit: nM
IC50: 185
--
given-smiles: Nc1nc(N)c2cc(NCc3ccc(CCNC(=O)c4ccccc4F)cc3)ccc2n1
reading-unit: nM
IC50: 180
--
given-smiles: Nc1nc(N)c2cc(NCc3ccc(CCNC(=O)c4ccc(C(F)(F)F)cc4)cc3)ccc2n1
reading-unit: nM
IC50: 21.3
--
given-smiles: COc1ccc(C(=O)NCCc2ccc(CNc3ccc4nc(N)nc(N)c4c3)cc2)cc1OC
reading-unit: nM
IC50: 61.1
--
given-smiles: COc1cc(OC)cc(C(=O)NCCc2ccc(CNc3ccc4nc(N)nc(N)c4c3)cc2)c1
reading-unit: nM
IC50: 32.1
--
given-smiles: Nc1nc(N)c2cc(NCc3ccc(CCNC(=O)c4cccc(F)c4)cc3)ccc2n1
reading-unit: nM
IC50: 50.6
--
given-smiles: Nc1nc(N)c2cc(NCc3ccc(CCNC(=O)Cc4ccccc4)cc3)ccc2n1
reading-unit: nM
IC50: 70.1
